Please go through the items and note down their Activity.
- Test system: Syrian golden hamster
- assayInfo: Antihyperlipidemic activity measured by free fatty acid level in golden syrian hamster at 100 mg/kg, po
- Format: functional, Mesocricetus auratus

Prompt line: Given OC[C@H]1O[C@@H](O[C@H]2[C@H](O)[C@@H](CO)O[C@]2(O)CO)[C@H](O)[C@@H](O)[C@H]1O , state its recorded Activity.
Response line: 450 µM

Prompt line: Now try OC[C@H]1O[C@](O)(CO)[C@@H](O[C@@H]2O[C@H](CO)[C@@H](O[C@H]3O[C@H](CO)[C@@H](O)[C@H](O)[C@H]3O)[C@H](O)[C@H]2O)[C@@H]1O .
Response line: 726.74 µM

Prompt line: Now try OC[C@H]1O[C@@](CO)(O[C@H]2O[C@H](CO)[C@@H](O)[C@H](O)[C@H]2O)[C@@H](O[C@H]2O[C@H](CO)[C@@H](O)[C@H](O)[C@H]2O)[C@@H]1O [MELEZITOSE] .
Response line: 510.7 µM

Prompt line: Now try OC[C@H]1O[C@](O)(CO)[C@@H](O[C@H]2O[C@H](CO)[C@@H](O)[C@H](O)[C@@H]2O)[C@@H]1O .
Response line: 510.7 µM
